- assay_procedure: Stability in human whole blood assessed as half life at 1 uM incubated upto 8 hrs by LC-MS/MS analysis
- Format: ADME, tissue-based
measured_endpoint: half-life at 1 µM

// known answers, use as guide
| chemical_smiles | half-life at 1 µM |
| --- | --- |
| Cc1cccc(Nc2cc(Nc3ccccc3Cl)c(C(N)=O)cn2)n1 | > 4 h |
| NC(=O)c1cnc(Nc2cccc(O)n2)cc1Nc1ccccc1Cl | > 1 h |
| COc1ccccc1Nc1cc(Nc2ccc(CC(=O)O)cn2)ncc1C(N)=O | > 4 h |

Inquiry: What does the data say about its half-life at 1 µM? Entry: `NC(=O)c1cnc(Nc2ccc(CC(=O)O)cn2)cc1Nc1ccccc1Cl`
Reply text: > 4 h
